Recorded values, source the RNAGym collection of RNA variant scans (doi:10.7554/elife.90254).

B1: LINE1-full (parent)
chain: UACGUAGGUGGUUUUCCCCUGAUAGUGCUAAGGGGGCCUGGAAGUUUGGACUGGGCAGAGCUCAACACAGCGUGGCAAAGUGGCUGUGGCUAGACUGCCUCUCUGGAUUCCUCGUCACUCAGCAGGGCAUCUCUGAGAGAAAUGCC

Variants of: B1
Test: self-cleavage, relative activity (ratio to wild type); higher = more cleavage; in vitro, sequencing; the parent is a self-cleaving ribozyme
Binning of self-cleavage into classes: bucket A (below 0.1), bucket B (0.1 to below 0.5), bucket C (0.5 or more)

Answered cases to consult:
>  <Biosequence>
UACGUAGGUGGUUUUCCCCUGAUAGUGCUAGGGGGGCCUGGAAGUUUGGACUGGGCAGAGCCCAACACAGCGUGGCAAAGUGGCUGUGGCUAGACUGCCUCUCUGGAUUCCUCGUCACUCAGCAGGGCAUCUCUGAGAGAAAUGCC

>  <Group Label>
bucket B

$$$$
>  <Biosequence>
UUCGUAGGUGGUUUUCCCCUGAUAGUGCUAAGGGGGCCUGGAAGUUUGGACUGGGCAGAGCUCAACACAGCGUGGCAAAGUGGCUGUGGCUAGACCGCCUCUCUGGAUUCCUCGUCACUCAGCAGGGCAUCUCUGAGAGAAAUGCC

>  <Group Label>
bucket B

$$$$

Inquiry: Category of UACGUAGGUGGUUUUCCCCUGAUAGUGCUAAGGGGGCCUGGAAGUUUGGACUGGGCAGAGCUCAACAUAGCGUGGCAAAGUGGCUGUGGCUAGACUGCCUCUCUGGAUUCCUCGUCACUCAGCAGGGCAUCUCUGAGAGAAAUGCC , please.
Reply text: bucket B

Inquiry: Which self-cleavage category applies to UACGUAGGUGGUUUUCCCCUGAUAGUGCUAAGGGGGCCUGGAAGUUUGGACUGGGCAGAGCGCAACACAGCGUGGCAAAGUGGCUGUGGCUAGACUGCCUCUCUGGAUUCCUCGUCACUCAGCAGGGCAUCUCUGGGAGAAAUGCC here?
Reply text: bucket A

Inquiry: State the band of UACGUAGGUGGUUUUCCCCUGAUAGUGCUAAGGGGGCCUGGAAGUUUGGACUGGGCAGAGCUCAACACAGCGUGGCAAAGUGGCUGUGGCUAGACUACCUCUCUGGAUUCCUCGUCACUCAGCAGGGCAUCUCUGUGAGAAAUGCC
Reply text: bucket B

Inquiry: Band for the recorded self-cleavage of UACGUAGGUGGUUUUCCCCUGAUAGUGCUAAGGGGGCCUGGAAGUUUGGACUGGGCAGAGCUCAACACAGCGUGGCAAAGUGGCUGUGGCUAGACUGCCACUCUGGAUUCCUCGUCACUCAGCAGGGCAUCUCUGAGAGAACUGCC ?
Reply text: bucket C

Inquiry: For UACGUAGGUGGUUUUCCCCUGAUAGUGCUAAGGGGGUCUGGAAGUUUGGACUGGGCAGAGCUCAACACAGCGUGGCAAAGUGGCUGUGGCUAGACUGCCUCUCUGGAUUCCUUGUCACUCAGCAGGGCAUCUCUGAGAGAAAUGCC , which self-cleavage bin applies?
Reply text: bucket B

Inquiry: For UACGUAGGUGGUUUUCCCCUGAUGGUGCUAAGGGUGCCUGGAAGUUUGGACUGGGCAGAGCUCAACACAGCGUGGCAAAGUGGCUGUGGCUAGACUGCCUCUCUGGAUUCCUCGUCACUCAGCAGGGCAUCUCUGAGAGAAAUGCC , which self-cleavage bin applies?
Reply text: bucket C

Inquiry: Record UACGCAGGUGGUUUUCCCCUGAUAGUGCUAAGGGGGCCUGGAAGUUUGGACUGGGCAGAGCUCAACACAGCGUGGCAAAGUGGCAGUGGCUAGACUGCCUCUCUGGAUUCCUCGUCACUCAGCAGGGCAUCUCUGAGAGAAAUGCC — which class?
Reply text: bucket B
